molecular target: human CCR8 (human, UniProt P51685 1-355); assay: cell-based or functional assay
Sequence (P51685 whole entry): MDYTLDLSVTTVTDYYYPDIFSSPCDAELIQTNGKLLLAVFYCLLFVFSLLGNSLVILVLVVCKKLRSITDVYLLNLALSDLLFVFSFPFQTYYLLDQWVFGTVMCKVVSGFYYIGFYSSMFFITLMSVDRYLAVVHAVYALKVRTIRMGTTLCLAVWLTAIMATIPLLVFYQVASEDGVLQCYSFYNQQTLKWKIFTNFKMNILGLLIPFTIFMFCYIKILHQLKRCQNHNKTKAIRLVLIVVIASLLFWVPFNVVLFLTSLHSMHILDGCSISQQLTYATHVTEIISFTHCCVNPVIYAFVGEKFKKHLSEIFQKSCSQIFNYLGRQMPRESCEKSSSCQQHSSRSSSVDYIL
Measure: ADCC, Percent Non-Viable cells (EC50 pM), Donor 5

[
  {
    "Binder": "Antibody 5.1 IgG1 (VH: F134T, VL: S34R_S57Y_F103V)_huIgG1z mAb (antibody, V domains shown) VH: QVQLVESGGGVVQPGRSLRLSCAASGFTFSSYGMHWVRQAPGKGLEWVAVISYDGSNKYYADSVKGRFTISRDNSKNTLYLQMNSLRAEDTAVYYCARGRYFDWTLFDYWGQGTLVTVSS VL: DTVMTQTPLSLSVTPGQPASISCKSSQSLLHRDGKTYLFWYLQKPGQPPQLLIYEVSNRFSGVPDRFSGSGSGTDFTLKISRVEAEDVGVYYCMQSLRLPLTFGGGTKVEIKR",
    "Recorded Result": 0.865
  },
  {
    "Binder": "Antibody 5.3 IgG1 (VH: A71S_D72R, VL: S57Y_E58L_V67S_F103V)_huIgG1z mAb (antibody, V domains shown) VH: QVQLVESGGGVVQPGRSLRLSCAASGFTFSSYGMHWVRQAPGKGLEWVAVISYDGSNKYYSRSVKGRFTISRDNSKNTLYLQMNSLRAEDTAVYYCARGRYFDWFLFDYWGQGTLVTVSS VL: DTVMTQTPLSLSVTPGQPASISCKSSQSLLHSDGKTYLFWYLQKPGQPPQLLIYLSSNRFSGVPDRFSGSGSGTDFTLKISRVEAEDVGVYYCMQSLRLPLTFGGGTKVEIKR",
    "Recorded Result": 0.642
  },
  {
    "Binder": "Antibody 5.4 IgG1 (VH: G40A, VL: S57Y_E58L_V67T_F103V)_huIgG1z mAb (antibody, V domains shown) VH: QVQLVESGGGVVQPGRSLRLSCAASGFTFSSYAMHWVRQAPGKGLEWVAVISYDGSNKYYADSVKGRFTISRDNSKNTLYLQMNSLRAEDTAVYYCARGRYFDWFLFDYWGQGTLVTVSS VL: DTVMTQTPLSLSVTPGQPASISCKSSQSLLHSDGKTYLFWYLQKPGQPPQLLIYLTSNRFSGVPDRFSGSGSGTDFTLKISRVEAEDVGVYYCMQSLRLPLTFGGGTKVEIKR",
    "Recorded Result": 0.889
  },
  {
    "Binder": "Antibody 6.1 IgG1 (VH: S67R_A114S_I134P, VL: F71L)_huIgG1z mAb (antibody, V domains shown) VH: QVQLVESGGGVVQPGRSLRLSCEASGFTFSSYVMHWVRQAPGKGLEWVSVISYDGSRQYYTDSVKGRFTISRDNSKNTLNLQMNSLRAEDTAVYYCVRGRLATSPLFDYWGQGTLVTVSS VL: DILMTQTPLSLSVTPGQPASISCKSSQSLLYSDGKTYLFWYLQRPGQPPQLLIYEVSNRLSGVPDRFSGSGSGTDFTLKISRVEAEDVGIYYCMQSIKLPLTFGGGTKVEIKR",
    "Recorded Result": 1.05
  }
]
